Target: mouse FAP (Mus musculus)
Construct: biotinylated His, Avi tag, mouse FAP (26-761, FAP-M82Q5); His; Avi tag (biotinylated); purchased AcroBiosystems FAP-M82Q5
Sequence (P97321 26-761): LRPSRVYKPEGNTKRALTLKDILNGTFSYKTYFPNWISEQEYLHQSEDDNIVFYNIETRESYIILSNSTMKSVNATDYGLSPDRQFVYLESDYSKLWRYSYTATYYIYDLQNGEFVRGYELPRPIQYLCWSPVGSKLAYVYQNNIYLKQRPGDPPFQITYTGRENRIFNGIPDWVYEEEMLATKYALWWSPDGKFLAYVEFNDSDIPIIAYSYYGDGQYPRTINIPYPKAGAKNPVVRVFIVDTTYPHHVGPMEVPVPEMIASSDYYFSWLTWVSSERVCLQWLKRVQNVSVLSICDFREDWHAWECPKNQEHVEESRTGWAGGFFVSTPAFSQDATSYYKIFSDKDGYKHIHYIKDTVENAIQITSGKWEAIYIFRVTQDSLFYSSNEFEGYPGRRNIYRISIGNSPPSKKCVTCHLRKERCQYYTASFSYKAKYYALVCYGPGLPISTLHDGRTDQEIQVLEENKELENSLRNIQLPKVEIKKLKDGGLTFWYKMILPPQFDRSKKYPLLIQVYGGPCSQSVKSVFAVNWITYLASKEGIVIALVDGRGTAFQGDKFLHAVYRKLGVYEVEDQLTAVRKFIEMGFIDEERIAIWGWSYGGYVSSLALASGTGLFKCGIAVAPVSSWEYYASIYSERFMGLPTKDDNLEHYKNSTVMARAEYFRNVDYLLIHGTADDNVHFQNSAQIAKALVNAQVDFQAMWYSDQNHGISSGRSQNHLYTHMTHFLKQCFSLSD
Test: Surface plasmon resonance (SPR) for peptide affinity, mouse FAP
Format: binding
Where a name gives a salt, the structure may show the parent alone. Starred links: 1 amine or outer side, 2 acyl side, 3 side chain; linkers in the order of their positions; H or OH if unused. Non-standard residues stand in square brackets, D forms with d. Residues, ends and D or L forms follow the SMILES beside them. Groups on a side chain read outwards from the residue. *: point of attachment. Piperazinyl(4-CH2COOH) = O=C(O)CN1CCN(*)CC1; AEF = NCCOc1ccc(C[C@H](N)C(=O)O)cc1; NMeF = CN[C@@H](Cc1ccccc1)C(=O)O; Ahp(2) = CCCCC[C@H](N)C(=O)O; dPip = O=C(O)[C@H]1CCCCN1; hSer = N[C@@H](CCO)C(=O)O; CO = O=C([*:1])[*:2]
Each item that follows carries a reported pKd.
The scale used: pKd is minus the common logarithm of the concentration in molar units.

Examples from the recorded data:
# compound, pKd
rows = [
    ("CCCCC[C@@H]1NC(=O)[C@H](Cc2ccc(O)cc2)NC(=O)[C@H](Cc2ccccc2)N(C)C(=O)CNC(=O)CNC(=O)[C@H]2CCCCN2C(=O)[C@H](CC(=O)O)NC(=O)[C@H](Cc2ccc(O)cc2)NC(=O)CNC(=O)[C@H](Cc2c[nH]c3ccccc23)NC1=O [Example A66] (cyclo([Ahp(2)]WGYD[dPip]GG[NMeF]Y))", 9.34),
    ("CCCCC[C@@H]1NC(=O)[C@H](Cc2ccc(O)cc2)NC(=O)[C@H](Cc2ccccc2)N(C)C(=O)CNC(=O)CNC(=O)[C@H]2CCCN2C(=O)[C@H](CC(=O)O)NC(=O)[C@H](Cc2ccc(O)cc2)NC(=O)[C@@H](C)NC(=O)[C@H](Cc2c[nH]c3ccccc23)NC1=O [Example A64] (cyclo([Ahp(2)]W[dA]YD[dP]GG[NMeF]Y))", 8.44),
    ("CCCCC[C@@H]1NC(=O)[C@H](Cc2ccc(OCCN)cc2)NC(=O)[C@H](Cc2ccccc2)N(C)C(=O)CNC(=O)[C@H](CCCCNC(=O)N2CCN(CC(=O)O)CC2)NC(=O)[C@H]2CCCN2C(=O)[C@H](CC(=O)O)NC(=O)[C@H](Cc2ccc(O)cc2)NC(=O)CNC(=O)[C@H](Cc2c[nH]c3ccccc23)NC1=O [Example A46, TFA salt] (cyclo([AEF][Ahp(2)]WGYD[dP]K([CO-Piperazinyl(4-CH2COOH)])G[NMeF]))", 8.66),
    ("CCCCC[C@@H]1NC(=O)[C@H](Cc2ccc(O)cc2)NC(=O)[C@H](Cc2ccccc2)N(C)C(=O)CNC(=O)[C@H](CCO)NC(=O)[C@H]2CCCN2C(=O)[C@H](CC(=O)O)NC(=O)[C@H](Cc2ccc(O)cc2)NC(=O)CNC(=O)[C@H](Cc2c[nH]c3ccccc23)NC1=O [Example A42] (cyclo([Ahp(2)]WGYD[dP][hSer]G[NMeF]Y))", 9.70),
]

With those in mind, consider the next compound.
Recorded pKd of CCCCC[C@@H]1NC(=O)[C@H](Cc2ccc(O)cc2)NC(=O)[C@H](Cc2ccccc2)NC(=O)[C@H](CCC(=O)O)NC(=O)[C@H](CCCCN)NC(=O)[C@H]2CCCN2C(=O)[C@H](CC(=O)O)NC(=O)[C@H](Cc2ccc(O)cc2)NC(=O)CNC(=O)[C@H](Cc2c[nH]c3ccccc23)NC1=O [Example A20] (cyclo([Ahp(2)]WGYD[dP]KEFY)) , please. 8.06
